The origin of these recorded values is PubChem BioAssay AID1259407.

- Tested on: CCRIS mutagenicity, Ames/micronucleus/aberration tests
- Test Protocol: CCRIS mutagenicity studies
- Test Settings: Test System: E. COLI; Strain/Indicator: WP2 UVRA; Metabolic Activation: MOUSE, LIVER, S-9; Method: STANDARD PLATE
Activity calls are given as the source filed them. The rule behind the calls is not given here.
Field 'call' accepts active, inactive

Reference set, count: 4
- Molecular String: "O=c1[nH]cc(N(CCCl)CCCl)c(=O)[nH]1"
  Category Label: "active"
- Molecular String: "COc1ccc(N)c(C)c1"
  Category Label: "inactive"
- Molecular String: "Nc1ccc(O)c([N+](=O)[O-])c1"
  Category Label: "inactive"
- Molecular String: "Cc1noc(NS(=O)(=O)c2ccc(N)cc2)c1C"
  Category Label: "inactive"

Inquiry: Returns: the outcome recorded for Oc1cccc2cc3cccc(O)c3c(O)c12 in this assay.
Reply text: inactive
